System: Trypanosoma cruzi
Test: Inhibition of Trypanosoma cruzi recombinant trypanothione synthetase using GSH/spermididine as substrate assessed as residual activity by measuring phosphate release from ATP at 30 uM after 15 mins by Biomol Green reagent based assay relative to control
Property: Activity (%)

| Smiles Data | Target Desc | Display Unit | Activity |
| --- | --- | --- | --- |
| CCOC(=O)c1csc(NC(=O)c2csc(NC(=O)c3csc(NC(C)=O)n3)n2)n1 | Trypanosoma cruzi | % | 96.3 |
| CC(C)(C)OC(=O)Nc1nc(C(=O)Nc2nc(C(=O)O)cs2)cs1 | Trypanosoma cruzi | % | 105 |
| CC(=O)Nc1nc(C(=O)Nc2nc(C(=O)Nc3nc(C(=O)O)cs3)cs2)cs1 | Trypanosoma cruzi | % | 102 |

----------
System: Trypanosoma cruzi
Test: Inhibition of Trypanosoma cruzi recombinant trypanothione synthetase using GSH/spermididine as substrate assessed as residual activity by measuring phosphate release from ATP at 30 uM after 15 mins by Biomol Green reagent based assay relative to control
Property: Activity (%)

| Smiles Data | Display Unit | Reported |
| --- | --- | --- |
| CCOC(=O)c1csc(NC(=O)c2csc(NC(=O)c3csc(NC(=O)OC(C)(C)C)n3)n2)n1 | % | 126 |
| Cc1nc(C(=O)Nc2nc(C(=O)O)cs2)cs1 | % | 104 |
| CCOC(=O)c1csc(NC(=O)c2csc(NC(=O)c3csc(C)n3)n2)n1 | % | 102 |

(1) CCOC(=O)c1csc(NC(=O)c2csc(NC(C)=O)n2)n1
(2) O=c1[nH]c2cc3no[n+]([O-])c3cc2[nH]1
Request: Look at 1 and 2 . Which one has the lower recorded Activity number? Please respond with the label that marks your chosen entry.
Result: 2
(2: 64.9%, 1: 98.1%)

----------
Test system: Leishmania infantum
Test: Inhibition of Leishmania infantum recombinant trypanothione synthetase using GSH/spermididine as substrate assessed as residual activity by measuring phosphate release from ATP at 30 uM after 15 mins by Biomol Green reagent based assay relative to control
Property: Activity (%)

| Smiles Data | Activity / % |
| --- | --- |
| CCOC(=O)c1csc(NC(=O)c2csc(N)n2)n1 | 89.5 |
| CCOC(=O)c1csc(NC(=O)c2csc(C)n2)n1 | 98.5 |
| CCOC(=O)c1csc(NC(=O)c2csc(NC(C)=O)n2)n1 | 82.8 |
| CC(C)(C)OC(=O)Nc1nc(C(=O)Nc2nc(C(=O)Nc3nc(C(=O)O)cs3)cs2)cs1 | 116 |

----------
System: Trypanosoma brucei brucei
Test: Inhibition of Trypanosoma brucei brucei recombinant trypanothione synthetase using GSH/spermididine as substrate assessed as residual activity by measuring phosphate release from ATP at 30 uM after 15 mins by Biomol Green reagent based assay relative to control
Property: Activity (%)

| Smiles Data | Activity, % |
| --- | --- |
| CC(C)(C)OC(=O)Nc1nc(C(=O)Nc2nc(C(=O)O)cs2)cs1 | 100 |
| CCOC(=O)c1csc(NC(=O)c2csc(NC(C)=O)n2)n1 | 102 |
| CCOC(=O)c1csc(NC(=O)c2csc(C)n2)n1 | 95.2 |
| CC(=O)Nc1nc(C(=O)Nc2nc(C(=O)Nc3nc(C(=O)O)cs3)cs2)cs1 | 103 |
| CCOC(=O)c1csc(NC(=O)c2csc(N)n2)n1 | 111 |
| Cc1nc(C(=O)Nc2nc(C(=O)O)cs2)cs1 | 96.6 |
| CCOC(=O)c1csc(NC(=O)c2csc(NC(=O)OC(C)(C)C)n2)n1 | 111 |
| CCOC(=O)c1csc(NC(=O)c2csc(NC(=O)c3csc(N)n3)n2)n1 | 100 |
| CC(=O)Nc1nc(C(=O)Nc2nc(C(=O)O)cs2)cs1 | 108 |
| CCOC(=O)c1csc(NC(=O)c2csc(NC(=O)c3csc(NC(C)=O)n3)n2)n1 | 93.7 |
| CCOC(=O)c1csc(NC(=O)c2csc(NC(=O)c3csc(NC(=O)OC(C)(C)C)n3)n2)n1 | 120 |

Values were extracted from ChEMBL document CHEMBL3994590.
